Overview of recorded ED50 for various compounds
Test system: Rattus norvegicus
Assay summary: Effective dose after subcutaneous administration to TPTX rats for 50% reduction of hypercalcemia
Assay type: functional
Protocol conditions: sc
Property measured: ED50 (mg/kg)

[
  {
    "Smiles structure": "O=P(O)(O)C(O)(Cc1ncc[nH]1)P(=O)(O)O",
    "Recorded value": 0.005
  },
  {
    "Smiles structure": "CCN(CCCOc1ccccc1)CCC(O)(P(=O)(O)O)P(=O)(O)O",
    "Recorded value": 0.02
  },
  {
    "Smiles structure": "O=P(O)(O)C(Nc1nccs1)P(=O)(O)O",
    "Recorded value": 0.005
  }
]

###

Test system: Rattus norvegicus
Assay summary: Effective dose after subcutaneous administration to TPTX rats for 50% reduction of hypercalcemia
Assay type: functional
Protocol conditions: sc
Overview of recorded ED50 for various compounds

[
  {
    "Smiles structure": "CNCCC(O)(P(=O)(O)O)P(=O)(O)O",
    "ED50": "~0.015 mg/kg"
  },
  {
    "Smiles structure": "O=P(O)(O)C(O)(C1CCNCC1)P(=O)(O)O",
    "ED50": "~2.5 mg/kg"
  },
  {
    "Smiles structure": "O=P(O)(O)C(Nc1ncc(-c2ccccc2)s1)P(=O)(O)O",
    "ED50": "> 1 mg/kg"
  },
  {
    "Smiles structure": "O=P(O)(O)C(O)(CCN1CCC(c2ccccc2)CC1)P(=O)(O)O",
    "ED50": "~0.011 mg/kg"
  },
  {
    "Smiles structure": "O=P(O)(O)C(Nc1nc2ccccc2s1)P(=O)(O)O",
    "ED50": "> 3 mg/kg"
  }
]

Cited source: ChEMBL document CHEMBL1135550
